# assay_info: chemical genetic growth profiling, strain panel (AID 1159580);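 note: tested at 20 µM; growth read once vehicle control cultures reached saturation at 30 °C; 1 = growth at the plate median or of vehicle wells; lower values mean less growth of the strain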
# recorded_conditions: S. cerevisiae deletion strains, growth OD, locus YER015W, strain faa2, active compounds read low
The campaign covered roughly 5,500 compounds. About 2,000 (36%) were called active. Inconclusive results (about 18%) are left out. This is one part of the list.
Quick reference for normalized growth among some molecules
Could you keep your reply to the number by itself?

{"columns": ["molecule", "normalized growth"],
 "data": [
  ["CC(=O)c1cc(CC=C(C)C)c(O)c(CC=C(C)C)c1", 1]
]}

Return reported normalized growth. Input molecule: NCC(=O)c1ccccc1 1

Look up and state reported normalized growth for NC(=O)NC(=O)Cc1ccccc1 0.99

# return recorded normalized growth for entry CC(C)CCCC(C)C1CCC2C3CC(=O)[C@H]4C[C@@H](O)CC[C@]4(C)C3CC[C@]12C (stereo partly drawn) 1

Quick one: give measured normalized growth for CC(C)CCCC(C)C1CCC2C3C[C@@H](O)[C@@]4(O)C[C@@H](O)CC[C@]4(C)C3CC[C@]12C (stereo partly drawn) 0.987

Supply normalized growth value. Item: COc1ccc2cc(CCC(C)=O)ccc2c1 1

Please list normalized growth recorded for the molecule CCOC(=O)[C@H](CCc1ccccc1)N[C@@H](C)C(=O)N1CCC[C@H]1C(=O)O 1

Specify measured normalized growth for CC(=O)Oc1ccc(C(c2ccc(OC(C)=O)cc2)c2ccccn2)cc1 . 1.01

Given CCN(CC)CCOCCOC(=O)C1(c2ccccc2)CCCC1 , respond with its normalized growth. 0.992

Quick one: give measured normalized growth for CC(=O)Oc1ccc(/C=C/c2cc(OC(C)=O)cc(OC(C)=O)c2)cc1 0.974
